Data provenance: ChEMBL document CHEMBL1821665

subject_of_test: Renin (Homo sapiens)
assay_notes: Inhibition of recombinant human renin using Dabcyl-gamma-Abu-Ile-His-Pro-Phe-His-Leu-Val-Ile-His-Thr-EDANS as substrate after 2 hrs by spectrofluorometry
quantity_measured: IC50 (nM)

[I] COc1cc2c(cn1)c(C(=O)N1CCNCC1)c(Oc1c(C)cccc1C)n2C1CCCCC1
[II] COc1cnc2c(c1)c(C(=O)N1CCNCC1)c(Cc1cccc(F)c1C)n2-c1ccccc1
[III] Cc1ccc(F)cc1Oc1c(C(=O)N2CCNCC2)c2cccnc2n1-c1ccccc1
[IV] CCCc1ccnc2c1c(C(=O)N1CCNCC1)c(Oc1c(C)cccc1C)n2-c1ccccc1
[V] Cc1ccc(F)cc1Oc1c(C(=O)N2CCNCC2)c2cc(O)cnc2n1-c1ccccc1
# descending IC50 order for the listed compounds Order the labels as requested and give them as your answer.
II, III, IV, I, V

[I] Cc1ccc(F)cc1Oc1c(C(=O)N2CCNCC2)c2cnccc2n1-c1ccccc1
[II] Cc1ccccc1Cc1c(C(=O)N2CCNCC2)c2cnccc2n1-c1ccccc1
Could you determine which record has the numerically smaller IC50? Candidates: I and II Write down the label attached to your selection.
I

[1] Cc1c(F)cc(F)cc1Oc1c(C(=O)N2CCNCC2)c2cccnc2n1-c1ccccc1
[2] Cc1c(F)cccc1Oc1c(C(=O)N2CCNCC2)c2cnccc2n1-c1ccccc1
IC50 comparison. Which is larger, 1 or 2 ? Write down the label attached to your selection.
1
(1: 504 nM, 2: 181 nM)

* * *

assay_notes: Apparent permeability from apical to basolateral side of human Caco2/TC7 cells at 20 uM after 2 hrs in presence of 0.5 to 5% BSA at pH 6.5 to 7.4
Type: ADME, cell-based
assay_setup: Caco-2, pH 6.5
quantity_measured: Papp A→B at 2 h, 20 µM (×10⁻⁶ cm/s)

>>> df
                                smiles_data  scale_unit  reported
0  Cc1ccc(F)cc1Oc1c(C(=O)N2CCNCC2)c2cc(O)cnc2n1-c1ccccc1  ×10⁻⁶ cm/s      0.45

[I] Cc1c(F)cccc1Cc1c(C(=O)N2CCNCC2)c2cnccc2n1-c1ccccc1
[II] COc1cc2c(cn1)c(C(=O)N1CCNCC1)c(Cc1cccc(F)c1C)n2-c1ccccc1
Papp A→B at 2 h, 20 µM comparison. Which is larger, I or II ? Write down the label attached to your selection.
II
(II: 2.2 ×10⁻⁶ cm/s, I: 0.64 ×10⁻⁶ cm/s)

* * *

subject_of_test: Renin (Homo sapiens, UniProt P00797)
Sequence (P00797 whole entry): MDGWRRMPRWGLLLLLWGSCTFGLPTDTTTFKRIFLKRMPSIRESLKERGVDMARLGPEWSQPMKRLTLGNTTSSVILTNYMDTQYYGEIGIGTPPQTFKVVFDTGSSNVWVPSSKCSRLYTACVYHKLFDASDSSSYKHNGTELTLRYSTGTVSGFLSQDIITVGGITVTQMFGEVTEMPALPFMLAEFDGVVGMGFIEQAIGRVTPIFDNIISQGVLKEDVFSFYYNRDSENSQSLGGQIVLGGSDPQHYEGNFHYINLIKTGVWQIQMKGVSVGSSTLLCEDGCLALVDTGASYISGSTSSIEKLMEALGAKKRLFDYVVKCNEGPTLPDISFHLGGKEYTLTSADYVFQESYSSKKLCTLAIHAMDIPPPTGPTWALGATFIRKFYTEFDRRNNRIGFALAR
assay_notes: Inhibition of recombinant human renin using Dabcyl-gamma-Abu-Ile-His-Pro-Phe-His-Leu-Val-Ile-His-Thr-EDANS as substrate preincubated for 30 mins followed by 30 mins incubation in human plasma by spectrofluorometry
pIC50: −log10 of the molar value.
quantity_measured: pIC50

                                smiles_data  quantity_measured  reported
0  Cc1ccc(F)cc1Oc1c(C(=O)N2CCNCC2)c2cc(O)cnc2n1-c1ccccc1              pIC50      6.72
1  Cc1c(F)cccc1Cc1c(C(=O)N2CCNCC2)c2cc(O)cnc2n1-c1ccccc1              pIC50      7.02

[I] COc1cc2c(cn1)c(C(=O)N1CCNCC1)c(Cc1cccc(F)c1C)n2-c1ccccc1
[II] Cc1c(F)cccc1Cc1c(C(=O)N2CCNCC2)c2cnccc2n1-c1ccccc1
Could you determine which record has the numerically smaller pIC50? Candidates: I and II Write down the label attached to your selection.
I
